Provide the recorded fold induction at 5 µM for the entries that follow.
system: HMOX1; test: HMOX1 Protein Assay (immunostaining of HO-1 in NHLF cells, GE InCell 1000); type: cell-based; conditions: Homo sapiens, fold change above DMSO treated cells, 5 μM compound, 16 h

Requested read-out: fold induction at 5 µM. Entry: Cn1c(Nc2nc3ccc(OC(F)(F)F)cc3s2)nc2cc(C(=O)NCC(F)(F)F)ccc21 30

Requested read-out: fold induction at 5 µM. Entry: Cn1c(Nc2nc3ccc(Cl)cc3s2)nc2cc(C(=O)NC3CCN(S(C)(=O)=O)CC3)ccc21 20

Requested read-out: fold induction at 5 µM. Entry: CNC(=O)c1ccc2c(c1)nc(Nc1nc3cc(F)c(F)cc3s1)n2C 9.7

Requested read-out: fold induction at 5 µM. Entry: Cn1c(Nc2nc3ccc(OC(F)(F)F)cc3s2)nc2cc(C(=O)NC(C)(C)C(=O)O)ccc21 12

Requested read-out: fold induction at 5 µM. Entry: Cn1c(Nc2nc3ccc(OC(F)(F)F)cc3s2)nc2cc(C(=O)NCCC3CCOCC3)ccc21 22.9

Requested read-out: fold induction at 5 µM. Entry: Cn1c(Nc2nc3ccc(Cl)cc3s2)nc2cc(C(=O)N[C@H]3CCN(CCO)C3)ccc21 29.4

Requested read-out: fold induction at 5 µM. Entry: Cn1c(Nc2nc3ccc(OC(F)(F)F)cc3s2)nc2cc(C(=O)NCCOC(F)(F)F)ccc21 12.1

Requested read-out: fold induction at 5 µM. Entry: Cn1c(Nc2nc3ccc(OC(F)(F)F)cc3s2)nc2cc(C(=O)NCCn3ccnc3)ccc21 31.9

====

system: HMOX1; experiment: HMOX1 Protein Assay (immunostaining of HO-1 in NHLF cells, GE InCell 1000); format: cell-based; settings: Homo sapiens, fold change above DMSO treated cells, 5 μM compound, 16 h
Counter-ions that a name gives are not always drawn.
Provide the recorded fold induction at 5 µM for the entries that follow.
Reply with just the number.

Requested read-out: fold induction at 5 µM. Entry: Cn1c(Nc2nc3ccc(Cl)cc3s2)nc2cc(C(=O)NCC(=O)N[C@@H]3CCCNC3)ccc21 [Example 387, hydrochloride] 19.9

Requested read-out: fold induction at 5 µM. Entry: COCCCNC(=O)c1ccc2c(c1)nc(Nc1nc3ccc(OC(F)(F)F)cc3s1)n2C [Example 19] 21.1

Requested read-out: fold induction at 5 µM. Entry: CNC(=O)c1ccc2c(c1)nc(Nc1nc3ccc(S(C)(=O)=O)cc3s1)n2C [Example 126] 4.6

Requested read-out: fold induction at 5 µM. Entry: COC(=O)c1cc2nc(Nc3nc4ccc(OC(F)(F)F)cc4s3)n(C)c2cc1F [Example 40] 11.8

Requested read-out: fold induction at 5 µM. Entry: CCOCCNC(=O)c1cnc2c(c1)nc(Nc1nc3ccc(OC(F)(F)F)cc3s1)n2C [Example 75] 29

Requested read-out: fold induction at 5 µM. Entry: COCCNC(=O)c1ccc2c(c1)nc(Nc1nc3ccc(Cl)cc3s1)n2C [Example 31] 23.6

Requested read-out: fold induction at 5 µM. Entry: Cn1c(Nc2nc3ccc(OC(F)(F)F)cc3s2)nc2cc(C(=O)NCCOCCCO)ccc21 [Example 246] 76.5

Requested read-out: fold induction at 5 µM. Entry: Cn1c(Nc2nc3ccc(OC(F)(F)F)cc3s2)nc2cc(C(=O)NC[C@H](O)CO)ccc21 [Example 280] 38.8

# credit: patent US8759535B2
